# measurement-target: Prostaglandin G/H synthase 2 (Homo sapiens) (UniProt P35354)
# Sequence (P35354 whole entry): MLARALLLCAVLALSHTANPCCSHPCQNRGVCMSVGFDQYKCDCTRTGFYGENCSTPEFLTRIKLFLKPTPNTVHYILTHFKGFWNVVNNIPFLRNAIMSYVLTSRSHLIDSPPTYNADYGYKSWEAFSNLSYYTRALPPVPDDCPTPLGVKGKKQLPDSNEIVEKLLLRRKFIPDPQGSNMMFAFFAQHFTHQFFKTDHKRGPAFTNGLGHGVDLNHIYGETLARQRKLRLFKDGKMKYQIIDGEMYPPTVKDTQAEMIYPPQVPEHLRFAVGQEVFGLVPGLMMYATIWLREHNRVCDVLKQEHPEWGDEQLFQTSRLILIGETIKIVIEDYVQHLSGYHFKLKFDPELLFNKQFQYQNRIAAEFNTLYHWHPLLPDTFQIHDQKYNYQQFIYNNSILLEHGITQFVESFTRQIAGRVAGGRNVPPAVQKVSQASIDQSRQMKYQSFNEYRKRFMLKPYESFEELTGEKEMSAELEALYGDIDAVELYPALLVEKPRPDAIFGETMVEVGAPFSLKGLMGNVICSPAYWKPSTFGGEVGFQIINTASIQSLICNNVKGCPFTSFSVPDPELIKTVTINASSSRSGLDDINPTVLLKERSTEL
# measurement-description: Inhibition of human recombinant COX2 assessed as residual activity at 30 uM preincubated for 5 mins by measuring 12-HHT level using HPLC method relative to control
Calls of active or inactive are those of the source. The rule behind the calls is not given here.
readout-kind: Activity

Q: Identify measured Activity corresponding to Cc1ccc(S(=O)(=O)NC(=O)CCc2c(-c3ccc(Cl)cc3)c(-c3ccccc3)c3n2CC(C)(C)C3)cc1
Result: inactive

Q: Assign Activity to the following record: CC1(C)Cc2c(-c3ccccc3)c(-c3ccc(Cl)cc3)c(CC(=O)NS(=O)(=O)c3ccccc3)n2C1
Result: 43.4%

Q: Annotate the molecule CC1(C)Cc2c(-c3ccccc3)c(-c3ccc(Cl)cc3)c(CCC(=O)O)n2C1 with its measured Activity.
Result: inactive

Q: Give a short answer stating reported Activity for CC1(C)Cc2c(-c3ccccc3)c(-c3ccc(Cl)cc3)c(Cc3nnn[nH]3)n2C1 .
Result: 46.5%
